assayed.target: mTOR (Homo sapiens)
procedure.details: Lanthascreen kinase binding assay, assay G
test.settings: read-out: Assay G mTOR IC50
pIC50: −log10 of the molar value.
readout: pIC50

Answered examples (3):
# input.smiles, pIC50
rows = [
    ("Cc1ccc(S(=O)(=O)NCCC(C)(C)O)cc1-c1cnc(N)c(-n2cnc(C3CC3)n2)n1", "< 5.04"),
    ("Cc1ccc(S(=O)(=O)NCCC(C)(C)O)cc1-c1cnc(N)c(-c2ccc(N3CCCC3)nc2)n1", "< 5.04"),
    ("Cc1ccc(S(=O)(=O)NCCC(C)(C)O)cc1-c1cnc(N)c(-c2csc(CN3CCOCC3)c2)n1", 5.16),
]

Now look at this one.
Q: Reported pIC50 for Cc1ccc(S(=O)(=O)NCCC(C)(C)O)cc1-c1cnc(N)c(-n2cccn2)n1 : what is it?
A: < 5.04

* * *

assayed.target: PI 3-kinase gamma (Homo sapiens)
Sequence (P48736 whole entry): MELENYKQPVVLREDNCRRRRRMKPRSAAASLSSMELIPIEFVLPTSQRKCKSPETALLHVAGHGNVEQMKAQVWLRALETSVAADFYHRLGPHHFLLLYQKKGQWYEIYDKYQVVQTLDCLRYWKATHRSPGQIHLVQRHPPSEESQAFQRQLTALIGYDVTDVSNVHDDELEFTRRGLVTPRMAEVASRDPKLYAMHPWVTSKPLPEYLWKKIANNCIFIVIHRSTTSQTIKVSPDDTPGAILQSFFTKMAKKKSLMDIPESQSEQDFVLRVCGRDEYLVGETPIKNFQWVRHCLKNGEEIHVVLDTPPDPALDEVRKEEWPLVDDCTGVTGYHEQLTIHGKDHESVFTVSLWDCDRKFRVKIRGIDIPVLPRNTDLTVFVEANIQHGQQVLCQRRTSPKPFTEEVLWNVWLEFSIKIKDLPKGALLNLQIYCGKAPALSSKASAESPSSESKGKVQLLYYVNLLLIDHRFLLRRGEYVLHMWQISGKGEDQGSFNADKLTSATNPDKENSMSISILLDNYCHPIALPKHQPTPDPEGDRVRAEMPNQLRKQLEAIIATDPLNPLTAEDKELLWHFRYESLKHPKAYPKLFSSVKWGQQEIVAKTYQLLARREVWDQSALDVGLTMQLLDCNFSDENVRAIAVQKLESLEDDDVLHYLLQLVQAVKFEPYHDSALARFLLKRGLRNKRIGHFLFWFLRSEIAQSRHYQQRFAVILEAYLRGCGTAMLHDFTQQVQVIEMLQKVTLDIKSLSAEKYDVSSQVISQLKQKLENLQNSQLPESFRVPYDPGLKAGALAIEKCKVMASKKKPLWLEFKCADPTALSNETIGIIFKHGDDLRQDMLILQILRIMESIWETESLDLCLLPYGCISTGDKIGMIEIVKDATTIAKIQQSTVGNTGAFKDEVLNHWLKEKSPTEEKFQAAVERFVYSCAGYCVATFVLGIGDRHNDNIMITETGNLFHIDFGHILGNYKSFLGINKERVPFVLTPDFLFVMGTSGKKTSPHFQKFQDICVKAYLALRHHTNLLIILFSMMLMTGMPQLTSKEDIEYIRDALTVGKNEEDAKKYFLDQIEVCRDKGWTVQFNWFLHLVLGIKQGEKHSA
procedure.details: Cellular U937 AKT assay K1 (MSD)
Type: cell-based
test.settings: U937 cells, K1 format; read-out: Assay K1 PI3Kγ IC50
pIC50: −log10 of the molar value.
Label Yes when pIC50 is at or above 7; anything below gets No.

# input.smiles, assayed.target, answer.label
data = [
    ("Cc1ccc(S(=O)(=O)N[C@H]2CC[C@H](O)CC2)cc1-c1cnc(N)c(-c2nc(C3CC3)no2)n1", "PI 3-kinase gamma (Homo sapiens)", "Yes"),
]

Q: In plain terms: is recorded pIC50 at least 7 for Cc1ccc(S(=O)(=O)NC2CC2)cc1-c1cnc(N)c(-n2cncn2)n1 ?
A: No

* * *

assayed.target: Vps34 (Homo sapiens, UniProt Q8NEB9)
Sequence (Q8NEB9 whole entry, species assumed): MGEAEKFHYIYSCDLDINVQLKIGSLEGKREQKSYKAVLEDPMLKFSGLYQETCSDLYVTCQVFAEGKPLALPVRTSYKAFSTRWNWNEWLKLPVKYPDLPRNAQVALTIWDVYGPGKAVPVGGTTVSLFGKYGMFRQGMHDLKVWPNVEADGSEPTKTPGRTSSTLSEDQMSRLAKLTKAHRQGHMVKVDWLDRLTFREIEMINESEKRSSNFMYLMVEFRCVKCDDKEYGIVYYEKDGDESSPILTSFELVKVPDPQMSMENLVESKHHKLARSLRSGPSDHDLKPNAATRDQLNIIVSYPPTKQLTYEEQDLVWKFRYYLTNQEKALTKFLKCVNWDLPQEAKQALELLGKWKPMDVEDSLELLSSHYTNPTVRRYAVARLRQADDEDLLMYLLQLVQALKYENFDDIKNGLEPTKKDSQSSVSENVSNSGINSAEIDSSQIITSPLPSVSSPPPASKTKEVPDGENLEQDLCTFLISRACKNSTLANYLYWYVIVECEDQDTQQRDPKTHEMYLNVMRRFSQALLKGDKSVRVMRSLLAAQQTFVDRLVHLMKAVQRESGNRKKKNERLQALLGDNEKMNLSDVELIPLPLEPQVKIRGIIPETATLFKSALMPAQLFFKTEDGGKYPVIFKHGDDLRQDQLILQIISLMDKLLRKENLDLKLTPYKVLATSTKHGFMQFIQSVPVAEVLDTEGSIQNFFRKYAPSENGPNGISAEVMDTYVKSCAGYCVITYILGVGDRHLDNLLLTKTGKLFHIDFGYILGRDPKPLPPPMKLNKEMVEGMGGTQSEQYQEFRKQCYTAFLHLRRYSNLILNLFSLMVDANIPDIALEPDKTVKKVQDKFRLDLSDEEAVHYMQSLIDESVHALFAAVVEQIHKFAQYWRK
procedure.details: Kinase Glo Luminescent Kinase Assay (Kglo), assay C
Assay type: biochemical
test.settings: read-out: Assay C VPS34 IC50
pIC50: −log10 of the molar value.
readout: pIC50

Q: Quick check: pIC50 of Cc1cn(-c2nc(-c3cc(S(=O)(=O)NCC(C)(C)O)ccc3C)cnc2N)c(C)n1 ?
A: < 5.00

Q: Dear colleague, I am looking for the recorded pIC50 of the following compound: CCc1noc(-c2nc(-c3cc(S(=O)(=O)N4CCC(CO)CC4)ccc3C)cnc2N)n1
A: < 5.04

Q: Fill blank: measured pIC50 of the compound Cc1ncc(-c2nc(-c3cc(S(=O)(=O)NCCC(C)(C)O)ccc3C)cnc2N)s1 is ____.
A: 6.24

Q: Looking for the measured pIC50 of Cc1ccc(S(=O)(=O)NCCF)cc1-c1cnc(N)c(-n2cncn2)n1 , can you help?
A: < 5.00

* * *

assayed.target: UniProtKB P42336
Sequence (P42336 whole entry): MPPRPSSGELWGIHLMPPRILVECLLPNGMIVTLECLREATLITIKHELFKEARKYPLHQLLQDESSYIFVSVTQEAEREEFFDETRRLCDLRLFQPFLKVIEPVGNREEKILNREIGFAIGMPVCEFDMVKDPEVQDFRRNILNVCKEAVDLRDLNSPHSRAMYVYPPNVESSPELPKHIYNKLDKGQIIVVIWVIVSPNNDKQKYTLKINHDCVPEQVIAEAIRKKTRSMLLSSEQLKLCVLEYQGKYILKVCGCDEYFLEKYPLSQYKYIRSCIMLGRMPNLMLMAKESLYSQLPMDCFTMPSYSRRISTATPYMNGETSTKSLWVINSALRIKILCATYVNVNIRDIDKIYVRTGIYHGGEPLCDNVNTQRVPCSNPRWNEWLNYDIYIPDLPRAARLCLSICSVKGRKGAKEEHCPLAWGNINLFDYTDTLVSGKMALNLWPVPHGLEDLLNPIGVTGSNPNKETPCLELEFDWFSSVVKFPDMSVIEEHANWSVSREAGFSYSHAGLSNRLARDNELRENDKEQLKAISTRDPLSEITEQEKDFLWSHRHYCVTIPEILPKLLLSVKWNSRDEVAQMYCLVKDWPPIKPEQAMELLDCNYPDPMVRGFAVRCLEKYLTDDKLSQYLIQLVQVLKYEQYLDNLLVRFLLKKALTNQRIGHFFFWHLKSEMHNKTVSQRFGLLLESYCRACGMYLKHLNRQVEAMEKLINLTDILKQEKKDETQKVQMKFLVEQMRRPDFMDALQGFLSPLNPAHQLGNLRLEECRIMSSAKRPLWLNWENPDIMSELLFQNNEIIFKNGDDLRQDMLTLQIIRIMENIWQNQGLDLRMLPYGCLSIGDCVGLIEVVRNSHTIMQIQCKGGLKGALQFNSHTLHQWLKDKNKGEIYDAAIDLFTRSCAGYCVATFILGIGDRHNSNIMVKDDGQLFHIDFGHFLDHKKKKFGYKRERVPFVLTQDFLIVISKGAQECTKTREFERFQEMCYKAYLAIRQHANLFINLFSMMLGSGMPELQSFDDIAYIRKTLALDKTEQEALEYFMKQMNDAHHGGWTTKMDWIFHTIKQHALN
Sequence (Q63787 whole entry partner): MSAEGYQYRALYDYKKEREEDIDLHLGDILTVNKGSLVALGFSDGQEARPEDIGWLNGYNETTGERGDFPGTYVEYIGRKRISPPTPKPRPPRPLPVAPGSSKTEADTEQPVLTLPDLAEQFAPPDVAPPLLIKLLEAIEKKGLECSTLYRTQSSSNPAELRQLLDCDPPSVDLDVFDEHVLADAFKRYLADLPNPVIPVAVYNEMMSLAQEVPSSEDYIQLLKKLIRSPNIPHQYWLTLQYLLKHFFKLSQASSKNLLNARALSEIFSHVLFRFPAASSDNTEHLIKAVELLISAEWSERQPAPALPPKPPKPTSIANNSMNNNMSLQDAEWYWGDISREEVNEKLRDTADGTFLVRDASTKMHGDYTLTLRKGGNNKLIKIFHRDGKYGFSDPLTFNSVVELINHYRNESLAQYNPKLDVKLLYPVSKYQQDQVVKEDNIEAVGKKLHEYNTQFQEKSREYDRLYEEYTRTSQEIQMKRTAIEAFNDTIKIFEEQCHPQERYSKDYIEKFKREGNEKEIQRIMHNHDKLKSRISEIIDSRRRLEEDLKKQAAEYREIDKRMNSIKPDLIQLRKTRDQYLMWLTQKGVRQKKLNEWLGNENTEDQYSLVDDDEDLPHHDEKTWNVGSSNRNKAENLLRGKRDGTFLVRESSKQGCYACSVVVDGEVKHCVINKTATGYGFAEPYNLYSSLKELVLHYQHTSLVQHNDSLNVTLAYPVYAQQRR
procedure.details: Cellular assay H1, p-Akt (S473) in Rat-1 cells, Surefire format
Assay type: cell-based
test.settings: non-asterisked data: version H1 (Surefire format), Rat-1 cells; read-out: Assay H PI3Kα IC50
Each item that follows carries a reported pIC50.
Lab note — pIC50 values are minus log10 of concentrations in M.

As a guide, the following entries are already answered.
# compound, pIC50
measured = [
    ("Cc1ccc(S(=O)(=O)N2CCCC(F)(F)C2)cc1-c1cnc(N)c(-n2cncn2)n1 [Example 127.1]", 5.80),
    ("Cc1cc(-c2nc(-c3cc(S(=O)(=O)N[C@H]4CC[C@H](O)CC4)ccc3C)cnc2N)on1 [Example 4]", 5.59),
    ("Cc1ccc(S(=O)(=O)NCCC(C)(C)O)cc1-c1cnc(N)c(-c2ccoc2)n1 [Example 119.15]", 5.83),
    ("Cc1ccc(S(=O)(=O)N[C@H]2CC[C@H](O)CC2)cc1-c1cnc(N)c(-n2cncn2)n1 [Example 15]", 5.71),
    ("Cc1nnc(-c2nc(-c3cc(S(=O)(=O)N[C@H]4CC[C@H](O)CC4)ccc3C)cnc2N)o1 [Example 1]", 5.03),
    ("Cc1ccc(S(=O)(=O)NCCC(C)(C)O)cc1-c1cnc(N)c(-c2ccc(OC3CCOCC3)nc2)n1 [Example 119.24]", 5.59),
]

Okay, next one:
Q: Given the entry Cc1cc(-c2nc(-c3cc(S(=O)(=O)N[C@H]4CC[C@H](O)CC4)ccc3C)cnc2N)ccn1 [Example 135] , report its measured pIC50.
A: 5.11
